Could you please report measured IC50 for the items listed next?
# Tested on: TALL-1;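 also: growth inhibition of cultured human TALL-1 cells, read out by a cell viability assay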
# methodSummary: cells
# Type: functional, cell-based
# settings: Homo sapiens
# Description: SANGER: Inhibition of human TALL-1 cell growth in a cell viability assay.

Enquiry: Any idea what its IC50 is? The compound is `Cc1n[nH]c2ccc(-c3cncc(OC[C@@H](N)Cc4c[nH]c5ccccc45)c3)cc12`
Return: 242 nM

Enquiry: Any idea what its IC50 is? The compound is `Cc1ccc(NC(=O)c2cccc(C(C)(C)C#N)c2)cc1Nc1ccc2ncn(C)c(=O)c2c1`
Return: > 4000 nM

Enquiry: Any idea what its IC50 is? The compound is `CC(C)=CC[C@@H](O)C1=CC(=O)c2c(O)ccc(O)c2C1=O`
Return: > 16000 nM

Enquiry: Any idea what its IC50 is? The compound is CCn1c(-c2nonc2N)nc2cnc(Oc3cccc(NC(=O)c4ccc(OCCN5CCOCC5)cc4)c3)cc21 [GSK-269962A]
Return: > 2500 nM
